These entries and their values trace back to the EternaBench riboswitch data.

# Tested on: MS2 coat protein
# assay-remarks: apparent Kd, MS2 coat protein; higher = weaker binding; RNA-MaP array
# study-conditions: ligand present: flavin mononucleotide; designed as: OFF switch for flavin mononucleotide
The class of a record is decided solely by its measured apparent Kd; consult group 1: < 20 nM; group 2: ≥ 20 nM and < 40 nM; group 3: ≥ 40 nM

State the band of `CUAGGUCAGCUAGGAUAUACUUCUUGCAUGGAUGUAGAAGGAGCGAUAAGAUCUACAUGAGGAUCACCCAUGUUACUUAGGGUG`
group 3

// repeat for `GGUGACCCUGUUCCACAUGAGGAUCACCCAUGUUACCACUAUUAGGAUAUGCUUACAUGUACACUGCAGAAGGAAUAGGUAAGA` and report
group 3

Repeat with `GGGUGACAUGAGGAUCACCCAUGUCAGGAUAUGGACUCGAAAUUAGGUAUGAAUCACGCCAGAAGGGACCGGGC`
group 3

Can you handle `AGGCGGGUAGGAUAUACCUUGUUCCUAGUAUCCAGUCGAGGACAUGAGGAUCACCCAUGUAGAAGGACCCAUUC` next?
group 2

// same read-out, input: `AACGAAUGAGGAUAUACAUGAGGAUCACCCAUGUGAAAGGGAGGUUGAAGAUUUGACAGUAGAAGGCAUAUGAC`
group 3

How about `UGGUAUGAAGGAUAUGACUAAGUUCACAUGAGGAUCACCCAUGUAACGUCCUCGACAUGUUCAGAAGGUCAGGCGA` ?
group 1

Same thing, different sequence: `CGUGUACAUGAGGAUCACCCAUGUUAGGAUAUCUUACCAAAGUCGAGGUGACUCCGGGAGAGAAGGAACUGGCA`
group 3

Okay, and `CAACAUGAGGAUCACCCAUGUGGAGGUCCCGUUACCGGCGGAUAGGAUAUGGAACGCAGCGAAAACCAGAAGGAUCUAUAGGAC` ?
group 3

Could you do the same for `GCACGACAUGAGGAUCACCCAUGUGAGGAUAUACUACAUCAGGAACACGCUAUGCACGGUAGAAGGCACGGGAG` , please?
group 1

Input `AAGCUGGAGAAUACAUGAGGAUCACCCAUGUGGCUUCAUGCCUAGGAUAUUAGUGUGCAGAACUGUAAGAAGGAGGAUCUUUAA`
group 1

Another sequence to check: `CUCUAUCAGCAAGGAUAUGGGAGGUGUCGAGUUCCAGAAGGUGCACAUGAGACAUGAGGAUCACCCAUGUUGUGUAGUCCUCGA`
group 2

Continue with `GACUACCAGGAAGGAUAUGCCUAUAACUGAAAGACAUGAGGAUCACCCAUGUAUUGGGCGAACCUGCAGAAGGUCCGACUAGAC`
group 3

Another sequence to check: `UUGCAAGUAGGAUAUAGUAGCGAAUACAUGAGGAUCACCCAUGUAGCCAGUGUAUUGCUUCUAGAAGGACUUCUCC`
group 2

Next: `ACAUGCUCUGAGGAUAUCAAUAAUCCCUAUUACUGAGAAGGCAGCACAUGAGGAUCACCCAUGUGAGGUGAGUC`
group 3

Now try `ACUAGACAUGAGGAUCACCCAUGUGAGGAUAUCUUGCUAUGCACUAUGGGCCAACGGAAGAGAAGGCACUGGGA` .
group 3

Same for `CGACGUCACGUGAGGAUAUGAUUGCUGCAAAUCAGUCAGAAGGCACAUGAGGAUCACCCAUGUCACCAAUACGA`
group 1

Again, but for `GCCAGUGUCUAGGAUAUCACGCCGCGUUGCAGGUGAGAAGGAGACACAUGAGGAUCACCCAUGUGUCCGAUAGG`
group 1

Same lookup for `AUUGAGACCUAGAAGGCGAAAACAUGAGGAUCACCCAUGUAGAUAACACCUACAUGAGCGAAAUACGAGGAUAUAGGAAAACUC` , please.
group 3

What about this sequence? `GGAUCGCGAGGAUAUACAUGAGGAUCACCCAUGUUUACUCACACAUUUUUAUUCUUCCGUAGAAGGCGCGCAAG`
group 1

Follow-up entry: `UCCCUGCAAGGAUAUACAUGAGGAUCACCCAUGUUUACACACGAAAAUUUGGAGAUAGGUAGAAGGUGCAUUUU`
group 1

Moving on to the next sequence: `UGGAACAGUGUAAGGAUAUGGUACAAAAUAAACUCCCAGAAGGUACAUGAGGAUCACCCAUGUUAAUAAGACAA`
group 1

Next up: `UAAGCGUUAGGAUAUACAAAACGAAGAAAGUGAUUCAGAAUACAUGAGGAUCACCCAUGUAGAAGGAACGGGUA`
group 2

Now the sequence `GGAAUGUAAGGAUAUACCCGUAAGGUAGGGAUCGCAUCGGCGUAGAAGGUACAUGAGGAUCACCCAUGUUCAGC`
group 1

Proceed to `ACACAUGAGGAUCACCCAUGUCGUGAGAGCUCAGUCGUGCGUUAGGAUAUCAUUCUGUUAGUGUUUGAGAAGGAACGGGUAACC`
group 3

Try the sequence `CCAAGAGUACUAGGAUAUUCCGGCCACGCACAUGAGGAUCACCCAUGUGAGACUCUCAGACGGUCGAAGAAGGAGUUGCAGGCU`
group 2

Please give the result for `GCAGUAAGAGAGGAUAUGAUGGACGCAAGGGCGUCAGAAGGCUCUACAUGAGGAUCACCCAUGUGAAGUUCAUA` too.
group 1

Now try `UCAGCUAGACAGGAUAUAGAGAAUCAAGAACAGCUAGAAGGGUCAACAUGAGGAUCACCCAUGUGGUGGUACUG` .
group 3

---

Task for the reader: assign each of the following sequences its reported apparent Kd.
# Tested on: MS2 coat protein
# assay-remarks: apparent Kd, MS2 coat protein; higher = weaker binding; RNA-MaP array
# study-conditions: ligand present: flavin mononucleotide; designed as: OFF switch for flavin mononucleotide
A number alone suffices; assume nM.

Given the entry `UAAUAUGGAGGAUAUAAAGUCGAAGACAUGAGGAUCACCCAUGUCCUUGGUUGAAAGAGGUUAGAAGGCCAUAGUA` , report its measured apparent Kd.
9.66

Another sequence to look at: `UCGUCGCUUCAGAAGGACAGACAAUCGUGCACUGUAGGAUAUGAGACGCGACAUGAGGAUCACCCAUGUGAACGGUUCGUAUAA`
53

Could you do the same for `UCCCGACAUGAGGAUCACCCAUGUCCAUUGUCGGUCGAGAGUAAGGAUAUAGAUAAUCAGGAGAACUAGAAGGUACUGUUAGCG` , please?
164

Check `GUACGGUGAGGAUAUCGUUAAGAUGUGGACAGGCCUACAUACGAGAAGGCACAUGAGGAUCACCCAUGUUCAUA` too.
18.8

Also, `CCGGUCCACUAGGAUAUGCGGAGUGUAUAUCACGCAGAAGGAGUCACAUGAGGAUCACCCAUGUGCGUGGGUUG` please.
9.16

Param item: `UAAAUUCGAGGAUAUACGAGCCUCUUGAGCUGCCACGAAGCACAUGAGGAUCACCCAUGUAGAAGGCGACGGAU`
19.9

Also need `AAUAAACGAGGAUAUACAGAUCAAGAUUAUCUAGUGAUCCUACAUGAGGAUCACCCAUGUAGAAGGCGAGAACA` , thanks.
66.7

---

# Test system: MS2 coat protein
# assay-remarks: apparent Kd, MS2 coat protein; higher = weaker binding; RNA-MaP array; FMN 200 µM where present
# study-conditions: ligand present: flavin mononucleotide; designed as: ON switch for flavin mononucleotide
apparent Kd below 60 nM gives Criterion not met; apparent Kd at or above it gives Criterion met.

Reported apparent Kd reaches at least 60 nM for `CGGUCGAUAUCAGGAUAUCGUUUAAUUACAUGAGGAUCACCCAUGUUGACAUGGAAUAUAACAUGCGAGAAGGGAUUACGAUCG` ?
Criterion not met

Please answer likewise for `CGUAGGAUGCAGAAGGCAUGAACAUGAGGAUCACCCAUGUGAAAACACAUGAGGAUAUGCAUCCUACGAAAAGUGCGAAAGCAC`
Criterion not met

Same again, this time with `CGCUGUCACGCAGGAUAUGCAUUGGAUUACAAUGCAGAAGGGCGAUCACAUGAGGAUCACCCAUGUGUAGACAGUGAAUAAGAG`
Criterion not met

And the next one, `AUACUCAUGUAAGGAUAUGCAGCCGUUUCGGCUGCAGAAGGUACUAUAAUACAUGAGGAUCACCCAUGUCUCUCGCCUUGCGAG` ?
Criterion met

Same question for `GCAGUAAAUAAAUGCACAUGAGGAUCACCCAUGUGGGAGGCACAGGAUAUCGUAUCAUAGUAGUACGAGAAGGGUGAUAAUCUC` please.
Criterion met

Now this one: `GCCCGAACCACAGGAUAUCCCAAUGUUUUACAGGGAGAAGGGUGAGAGUAUGACAUGAGGAUCACCCAUGUUGUUCGGGUGGAA`
Criterion met

---

# System: MS2 coat protein
# assay-remarks: apparent Kd, MS2 coat protein; higher = weaker binding; RNA-MaP array
# study-conditions: ligand present: flavin mononucleotide; designed as: ON switch for flavin mononucleotide
measured-endpoint: apparent Kd (nM)
Please state the figure in nM; there is no need to write the unit.

What apparent Kd value was documented for this sequence, `AUUCAUCUCUAGAAGGGACUGCACAAAACACAGAAUUCUUACAUGAGGAUCACCCAUGUUGUGGGUCAGGAUAUAGGCAGGCCA` ?
20.1

And for `AAUCAUAAUAAAGGAUAUACAACACAACAGGUGGUAGAAGGAUAUGGAGAUGGAACACACAUGAGGAUCACCCAUGUAAAUAGC` ?
9.95

Check `AUGCUUAAAAUGCUCAAACAUGAGGAUCACCCAUGUGAGGUCAAGGAUAUUAUUUAACUUGUUUAUAAGAAGGUGACCGAAUGA` too.
18.7

Then `AAACACUCAUAAGGAUAUGCAGCGCUUAGACAUGAGGAUCACCCAUGUGAUGCAGGGAAGUCCCGGCAGAAGGUAAGUAAGUAC` ?
13
